tested-target: UniProt P06186
Sequence (whole entry): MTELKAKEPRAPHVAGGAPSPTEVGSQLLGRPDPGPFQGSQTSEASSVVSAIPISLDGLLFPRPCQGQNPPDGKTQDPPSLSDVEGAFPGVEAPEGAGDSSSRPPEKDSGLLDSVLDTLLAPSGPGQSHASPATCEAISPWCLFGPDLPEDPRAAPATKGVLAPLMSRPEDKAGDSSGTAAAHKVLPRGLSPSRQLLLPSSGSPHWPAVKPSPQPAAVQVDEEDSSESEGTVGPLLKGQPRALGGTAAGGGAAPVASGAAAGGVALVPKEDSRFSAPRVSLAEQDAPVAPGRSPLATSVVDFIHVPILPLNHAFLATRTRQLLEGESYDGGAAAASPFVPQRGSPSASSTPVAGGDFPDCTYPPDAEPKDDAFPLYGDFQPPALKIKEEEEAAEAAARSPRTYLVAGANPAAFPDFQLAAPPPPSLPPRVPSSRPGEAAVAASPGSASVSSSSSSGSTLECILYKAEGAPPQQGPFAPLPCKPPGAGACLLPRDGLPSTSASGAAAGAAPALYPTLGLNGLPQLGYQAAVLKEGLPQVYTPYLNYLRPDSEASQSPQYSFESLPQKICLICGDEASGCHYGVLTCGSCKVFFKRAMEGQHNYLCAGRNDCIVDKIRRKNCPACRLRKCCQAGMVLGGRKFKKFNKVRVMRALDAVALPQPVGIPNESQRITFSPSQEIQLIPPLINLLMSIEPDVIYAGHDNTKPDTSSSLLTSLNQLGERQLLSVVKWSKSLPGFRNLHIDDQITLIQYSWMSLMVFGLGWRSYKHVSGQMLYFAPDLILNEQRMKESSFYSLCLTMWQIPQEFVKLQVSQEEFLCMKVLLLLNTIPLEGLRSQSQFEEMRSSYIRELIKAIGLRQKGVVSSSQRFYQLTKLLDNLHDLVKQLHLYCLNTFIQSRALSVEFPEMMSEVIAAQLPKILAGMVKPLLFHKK
run-description: Percent inhibition of [3H]- progesterone binding to rabbit uterine progesterone receptor, at 10e-8 M compound concentration
setup-conditions: at 0.01 µM
quantity: inhibition

Consider the following illustrative entries.
> print(dat)
                                   compound    quantity  measured
1  COC(=O)C1=C(C)N=C(C)/C(=C(\O)OC)C1c1cc2cc(-c3c(C)oc(C)c3C(=O)OC)ccc2nc1Cl (stereo not drawn)  inhibition        0%
2  COC(=O)C1=C(C)N=C(C)/C(=C(\O)OC)C1c1cc(C(=O)c2ccc(C)cc2)c(OC)cc1OC (stereo not drawn)  inhibition       11%

For COC(=O)C1=C(C)N=C(C)/C(=C(/O)OC)C1c1ccc2[nH]nnc2c1 (stereo not drawn) , what is its reported inhibition?
8%
